- Tested on: HEK293
- Procedure text: Activation of COL1a2 transcriptional activity in HEK293 cells by dual-luciferase reporter assay
- Format: functional, cell-based
- Particulars: Homo sapiens
Activity calls are given as the source filed them. The rule behind the calls is not given here. Where a SMILES comes first, the peptide text is derived from it.
Quantity name: Activity

Recorded Activity, per entry:
Compound: CC(C)C[C@H](NC(=O)[C@H](CCCCN)NC(=O)[C@@H]1CCCN1C(=O)[C@H](CC(C)C)NC(=O)[C@@H](N)C(C)C)C(=O)N[C@@H](CCC(=O)O)C(=O)N[C@@H](CS)C(=O)N[C@H](C(=O)N[C@@H](Cc1c[nH]c2ccccc12)C(=O)O)C(C)C (H-VLPKLECVW-OH)
Quantity name: Activity
Observed measurement: Active

Compound: CC(C)[C@H](N)C(=O)N[C@H](C(=O)N[C@@H](CS)C(=O)N1CCC[C@H]1C(=O)N[C@@H](CCCCN)C(=O)O)C(C)C (H-VVCPK-OH)
Quantity name: Activity
Observed measurement: Active

Compound: CC(C)C[C@H](NC(=O)[C@@H](N)C(C)C)C(=O)N[C@@H](CCCCN)C(=O)N[C@@H](CCCCN)C(=O)N[C@@H](CS)C(=O)O (H-VLKKC-OH)
Quantity name: Activity
Observed measurement: Active

Compound: CC(C)[C@H](N)C(=O)N[C@H](C(=O)N[C@@H](CCCCN)C(=O)N[C@@H](CS)C(=O)N1CCC[C@H]1C(=O)N[C@@H](CCCCN)C(=O)O)C(C)C (H-VVKCPK-OH)
Quantity name: Activity
Observed measurement: Active

Batch lookup, Activity per entry.
1. CC(C)[C@H](N)C(=O)N[C@H](C(=O)N1CCC[C@H]1C(=O)N[C@H](C(=O)N[C@H](C(=O)N[C@H](C(=O)N[C@@H](CS)C(=O)N1CCC[C@H]1C(=O)N[C@@H](CCCCN)C(=O)O)C(C)C)C(C)C)[C@@H](C)O)C(C)C (H-VVPTVVCPK-OH)
2. CC(C)C[C@H](NC(=O)[C@H](Cc1c[nH]c2ccccc12)NC(=O)[C@@H]1CCCN1C(=O)[C@@H]1CCCN1C(=O)[C@H](CC(C)C)NC(=O)[C@@H](N)CC(C)C)C(=O)N[C@@H](CCCNC(=N)N)C(=O)N1CCC[C@H]1C(=O)N[C@@H](CCCCN)C(=O)N[C@@H](CS)C(=O)N[C@@H](CO)C(=O)O (H-LLPPWLRPKCS-OH)

Resp:
1: Active; 2: Active
